target: 5-HT4 receptor (Rattus norvegicus); assay: cell-based; conditions: rat esophagus tunica muscularis mucosae contracted with carbachol (3 μM); tissues from 5 rats; 37° C.; read-out: EC50 values for agonists at this 5-HT4 receptor
Sequence (Q62758 whole entry): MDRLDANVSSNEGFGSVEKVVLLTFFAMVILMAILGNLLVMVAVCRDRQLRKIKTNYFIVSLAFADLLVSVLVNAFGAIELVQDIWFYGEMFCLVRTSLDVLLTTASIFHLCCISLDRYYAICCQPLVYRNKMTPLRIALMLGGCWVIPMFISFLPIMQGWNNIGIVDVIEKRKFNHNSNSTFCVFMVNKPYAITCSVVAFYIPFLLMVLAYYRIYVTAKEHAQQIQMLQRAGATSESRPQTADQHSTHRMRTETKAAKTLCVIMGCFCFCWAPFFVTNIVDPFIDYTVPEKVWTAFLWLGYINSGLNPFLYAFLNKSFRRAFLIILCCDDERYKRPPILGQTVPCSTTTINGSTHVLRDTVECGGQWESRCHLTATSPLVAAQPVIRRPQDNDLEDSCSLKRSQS
pEC50: −log10 of the molar value.
REPORTED_METRIC: pEC50

a. COc1cc(N)c(Cl)cc1C(=O)NCC12CC3CN(CC3C1)C2
b. COc1cc(N)c(Cl)cc1C(=O)NCC12CCCN1CCC2
Consider entries a and b . Which has the numerically lower pEC50? Write the label of whichever entry you select.
b
(b: 6.37, a: 6.67)
